Hello, the source for this data is patent US20090317363A1, in case you need it.

- Study target: CCR5 (UniProt P51681)
- Method description: cell-based or functional assay
Attribute measured: anti-HIV potency (IC50, nM) by cell fusion assay

Answered examples (2):
>>> df
                                  substance  reading
0  AOP-RANTES, the aminooxypentane oxime of [glyoxylyl]1RANTES(2-68) (from UniProt P13501 25-91) (ligand)  1.12 nM
1  Met-RANTES (from UniProt P13501 24-91) (ligand)  75.1 nM

GET /values?readout=anti-HIV potency (IC50, nM) by cell fusion assay&item= NNY-RANTES (n-nonanoyl-RANTES(2-68)) (from UniProt P13501 25-91) (ligand) 0.29 nM

Proceed to PSC-RANTES (ligand) 0.02 nM
